experiment: In vivo metabolism of S3643, single oral dose 100 mg/kg bw; parameters: species or system Sprague-Dawley rats; settings: both, Sprague-Dawley, rat, plasma, oral, 100 mg/kg bw
OBSERVED PROPERTY: concentration at 0.25 h (µg/mL)
Report only the number, with the unit µg/mL understood.

The recorded concentration at 0.25 h for entry COc1cccc(-c2n[nH]c(SCc3ccccn3)n2)c1OC equals 86

----------
assay: Pharmacokinetics of S3643, single iv or oral dose; type: in vivo, Sprague-Dawley rats; settings: male, Sprague-Dawley, rat, plasma, po, 10 mg/kg
OBSERVED PROPERTY: Tmax

The recorded Tmax for entry COc1cccc(-c2n[nH]c(SCc3ccccn3)n2)c1OC equals 15 min

----------
test: Pharmacokinetics of S3643, single iv or oral dose; type: in vivo, Sprague-Dawley rats; conditions: male, Sprague-Dawley, rat, plasma, po, 30 mg/kg
OBSERVED PROPERTY: bioavailability
Answer as a quantity: numeral, then unit.

The recorded bioavailability for entry COc1cccc(-c2n[nH]c(SCc3ccccn3)n2)c1OC [S3643] equals 96%

----------
experiment: Pharmacokinetics of S3643, single iv or oral dose; type: in vivo, Sprague-Dawley rats; details: female, Sprague-Dawley, rat, plasma, po, 30 mg/kg, AUClast, oral 30 mg/kg bw
OBSERVED PROPERTY: AUC(0-t) (ng·h/mL)
Report only the number, with the unit ng·h/mL understood.

The recorded AUC(0-t) for entry COc1cccc(-c2n[nH]c(SCc3ccccn3)n2)c1OC [S3643] equals 73500

----------
biological target: UniProt P08684; experiment: CYP inhibition, LC–MS/MS assay in human liver microsomes; settings: human, human liver microsomes, probe midazolam
Sequence (P08684 whole entry): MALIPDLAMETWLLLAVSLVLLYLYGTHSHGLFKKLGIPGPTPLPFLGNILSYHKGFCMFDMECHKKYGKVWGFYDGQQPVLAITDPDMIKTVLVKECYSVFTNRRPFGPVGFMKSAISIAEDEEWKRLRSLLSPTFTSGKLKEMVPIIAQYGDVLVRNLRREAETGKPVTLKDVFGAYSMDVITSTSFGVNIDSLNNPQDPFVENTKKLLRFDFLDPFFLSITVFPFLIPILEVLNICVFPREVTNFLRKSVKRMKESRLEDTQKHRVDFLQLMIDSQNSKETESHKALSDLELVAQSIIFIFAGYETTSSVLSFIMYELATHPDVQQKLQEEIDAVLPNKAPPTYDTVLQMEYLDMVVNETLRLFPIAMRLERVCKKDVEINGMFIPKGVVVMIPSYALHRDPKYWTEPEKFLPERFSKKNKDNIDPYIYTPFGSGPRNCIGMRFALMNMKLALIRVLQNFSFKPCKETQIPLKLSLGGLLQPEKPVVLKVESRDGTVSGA
OBSERVED PROPERTY: inhibition at 10 µM (%)
Report only the number, with the unit % understood.

The recorded inhibition at 10 µM for entry COc1cccc(-c2n[nH]c(SCc3ccccn3)n2)c1OC [S3643] equals 30

----------
test: In vivo metabolism of S3643, single oral dose 100 mg/kg bw; parameters: species or system Sprague-Dawley rats; details: both, Sprague-Dawley, rat, plasma, oral, 100 mg/kg bw
OBSERVED PROPERTY: concentration at 2 h (ng/mL)
Report only the number, with the unit ng/mL understood.

The recorded concentration at 2 h for entry COc1cccc(-c2n[nH]c(SCc3ccccn3)n2)c1OC equals 29200

----------
molecular target: CYP2C19 (Homo sapiens); test: CYP inhibition, LC–MS/MS assay in human liver microsomes; details: probe S-mephenytoin
Sequence (P33261 whole entry): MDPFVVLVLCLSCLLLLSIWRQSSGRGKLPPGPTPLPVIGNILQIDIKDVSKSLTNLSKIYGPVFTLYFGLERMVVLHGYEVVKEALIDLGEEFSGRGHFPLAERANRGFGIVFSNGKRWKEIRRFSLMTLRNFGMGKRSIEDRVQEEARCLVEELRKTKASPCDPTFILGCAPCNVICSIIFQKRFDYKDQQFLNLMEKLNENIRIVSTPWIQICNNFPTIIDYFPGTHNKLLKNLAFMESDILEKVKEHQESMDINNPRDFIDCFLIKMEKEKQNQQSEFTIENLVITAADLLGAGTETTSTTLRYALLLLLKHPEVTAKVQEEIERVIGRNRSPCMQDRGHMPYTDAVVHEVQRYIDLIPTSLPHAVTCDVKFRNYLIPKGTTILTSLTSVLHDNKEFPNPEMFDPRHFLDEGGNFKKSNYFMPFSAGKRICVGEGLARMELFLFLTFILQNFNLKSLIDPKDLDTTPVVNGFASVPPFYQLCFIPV
OBSERVED PROPERTY: inhibition at 10 µM (%)
Report only the number, with the unit % understood.

The recorded inhibition at 10 µM for entry COc1cccc(-c2n[nH]c(SCc3ccccn3)n2)c1OC [S3643] equals 13

----------
assay: Pharmacokinetics of S3643, single iv or oral dose; format: in vivo, Sprague-Dawley rats; conditions: male, Sprague-Dawley, rat, plasma, iv, 1 mg/kg
OBSERVED PROPERTY: half-life (min)
Report only the number, with the unit min understood.

The recorded half-life for entry COc1cccc(-c2n[nH]c(SCc3ccccn3)n2)c1OC equals 11.4

----------
test: Pharmacokinetics of S3643, single iv or oral dose; type: in vivo, Sprague-Dawley rats; settings: male, Sprague-Dawley, rat, plasma, po, 10 mg/kg, AUClast, oral 10 mg/kg bw
OBSERVED PROPERTY: AUC(0-t)

The recorded AUC(0-t) for entry COc1cccc(-c2n[nH]c(SCc3ccccn3)n2)c1OC equals 26600 ng·h/mL
